test system: A-375; assay: Cytotoxicity against human A375 cells after 96 hrs by MTT assay; assay type: functional, cell-based; conditions: A-375, 96 h
# strict inequality: IC50 < 20 µM yields y, everything else yields n

[
  {
    "smiles_structure": "CNc1nc2ccccc2n2c(CCc3ccccc3)cnc12",
    "label_value": "y"
  },
  {
    "smiles_structure": "CNc1nc2ccccc2n2c(-c3cccc(C#N)c3)cnc12",
    "label_value": "n"
  },
  {
    "smiles_structure": "CNc1nc2ccccc2n2c(-c3cccc(C(F)(F)F)c3)cnc12",
    "label_value": "y"
  }
]

# TODO verify IC50 < 20 µM strictly for this compound: "CNc1nc2ccccc2n2c(-c3ccoc3)cnc12"
n

Does the reported IC50 of "CNc1nc2ccccc2n2c(-c3cccc(F)c3)cnc12" stay below 20 µM?
n
